Measured fold changes relative to vehicle control of individual entries
- target entity: HeLa cell extract proteins (Homo sapiens, UniProt P04080)
- Construct: endogenous in cells; host or cells: HeLa cell extract
- Sequence (P04080 whole entry): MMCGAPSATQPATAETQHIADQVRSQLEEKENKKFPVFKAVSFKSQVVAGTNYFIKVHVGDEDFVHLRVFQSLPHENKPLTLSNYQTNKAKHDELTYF
- Assay type: binding
- protocol conditions: HeLa; protein CSTB
API note: the answer field is a bare number with no unit suffix.

Past entries and their recorded results:
1) Nc1nc2cccc(-c3ccccc3)c2n1Cc1ccc(Cl)c(Cl)c1 ... 1.17
2) CCCCCCOc1ccc(Cc2cnc(N)nc2N)cc1 ... 1.08
3) Nc1nc2c(c(=O)[nH]1)N(C=O)C(CNc1ccc(C(=O)N[C@@H](CCC(=O)O)C(=O)O)cc1)CN2 (stereo partly drawn) ... 1.07

Could you tell me which fold changes relative to vehicle control is on file for NCCOCCOCC(=O)Nc1nc2ncc(CNc3ccc(C(=O)NC(CCC(=O)O)C(=O)O)cc3)nc2c(=O)[nH]1 (stereo not drawn) ?
1.29

Could you tell me which fold changes relative to vehicle control is on file for NCCCNc1ccc(C(=O)NC(CCC(=O)O)C(=O)O)cc1 (stereo not drawn) ?
1.24

Could you tell me which fold changes relative to vehicle control is on file for CCCCCCOc1cccc(Cc2cnc(N)nc2N)c1 ?
0.99

Source listed as paper PMC6199744.
